Tested on: 883617-216-R-J1-PDC complex spheroid viability;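 also: exposure lasted seven days after three days of spheroid growth; 100% = DMSO vehicle control luminescence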
TEST_NAME: Anticancer human tumor 883617-216-R-J1-PDC patient-derived bladder carcinoma cell line growth inhibition
EXPERIMENTAL_CONDITIONS: second compound 0.316 µM; first compound 0.01 µM; stronger effect = lower value
READOUT_KIND: viability, T/C (%)
Field format: number, assumed %, no unit text.

In the examples that follow, each entry is paired with its recorded viability, T/C.
{"MOLECULE": "CC1COCCN1c1cc(-c2ccnn2C)c2ccnc(-c3ccn[nH]3)c2n1 (centres undefined) + NC1CC1c1ccc(-c2cccc(O)c2)cc1", "SYSTEM_UNDER_TEST": "883617-216-R-J1-PDC complex spheroid viability", "viability, T/C (%)": 45.9}
{"MOLECULE": "CC(C)CC(NC(=O)CNC(=O)c1cc(Cl)ccc1Cl)B1OC(=O)CC(CC(=O)O)(C(=O)O)O1 (centres undefined) + NC1CC1c1ccc(-c2cccc(O)c2)cc1", "SYSTEM_UNDER_TEST": "883617-216-R-J1-PDC complex spheroid viability", "viability, T/C (%)": 18}
{"MOLECULE": "CC(C)CC(NC(=O)C(Cc1ccccc1)NC(=O)c1cnccn1)B(O)O (centres undefined) + NC1CC1c1ccc(-c2cccc(O)c2)cc1", "SYSTEM_UNDER_TEST": "883617-216-R-J1-PDC complex spheroid viability", "viability, T/C (%)": 0.02}

Here is another molecule to look at.
INPUT: Lookup: viability, T/C / 883617-216-R-J1-PDC complex spheroid viability / CC1COCCN1c1cc(-c2ccnn2C)c2ccnc(-c3ccn[nH]3)c2n1 (centres undefined) + NC1CCC(NC2CC2c2ccccc2)CC1
OUTPUT: 62
